System Name: Retinoic acid receptor RXR-alpha (Homo sapiens) (UniProt P19793)
Sequence (P19793 whole entry, looked up): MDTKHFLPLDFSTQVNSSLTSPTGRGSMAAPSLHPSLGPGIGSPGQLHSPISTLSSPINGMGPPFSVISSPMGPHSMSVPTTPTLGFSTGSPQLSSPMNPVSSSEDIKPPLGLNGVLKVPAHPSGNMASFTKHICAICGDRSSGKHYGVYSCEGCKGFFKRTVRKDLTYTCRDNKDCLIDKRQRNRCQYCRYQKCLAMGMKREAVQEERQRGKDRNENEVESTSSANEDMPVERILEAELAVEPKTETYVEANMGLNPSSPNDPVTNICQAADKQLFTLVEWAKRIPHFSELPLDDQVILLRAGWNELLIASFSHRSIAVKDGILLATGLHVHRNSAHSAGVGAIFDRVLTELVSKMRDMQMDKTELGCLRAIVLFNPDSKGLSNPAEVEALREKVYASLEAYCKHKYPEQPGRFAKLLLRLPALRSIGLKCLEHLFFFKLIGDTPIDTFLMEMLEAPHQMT
Run Description: OT_NURR1_NURR1RXRa_1440: Odyssey Thera (OT) 24-hour HEK293T Protein Complementation Assay for Nurr1/retinoid X receptor (RXR) (AID 2283386)
Records with an inconclusive call do not appear. Activity calls are given as the source filed them. Rule for the calls: active = hit-call score of the fitted dose curve at least 0.9, where 1 is the maximum; inconclusive = response in the unintended direction; inactive = score below 0.9.
Response enum: active, inactive

Worked set:
Compound	Assigned Category
CNC(C)=O	inactive
c1ccc2cc3ccccc3cc2c1	active
COS(C)(=O)=O	inactive
c1ccc2ncccc2c1	inactive

Exam item: Please let me know the test result on file for CCCCN1C(=O)[C@@H]([C@H](O)C2CCCCC2)NC(=O)C12CCN(Cc1ccc(Oc3ccc(C(=O)O)cc3)cc1)CC2 .
Marked response: inactive

Exam item: Tell me the assay call for OC(Cn1cncn1)(Cn1cncn1)c1ccc(F)cc1F please.
Marked response: inactive

Exam item: Please indicate how the test categorized Cn1c(=O)c2[nH]cnc2n(C)c1=O .
Marked response: inactive

###

System Name: human Adenosine A2a Receptor (AdoRA2a), ADORA2A (gene 135)
Run Description: NVS_GPCR_hAdoRA2a: NovaScreen (NVS) G Protein-Coupled Receptor Assay for human Adenosine A2a Receptor (AdoRA2a) (AID 2283256)
Inconclusive results are not listed. Calls of active or inactive are those of the source. How the source made its calls: active means hit-call score of the fitted dose curve at least 0.9, where 1 is the maximum; inconclusive means response in the unintended direction; inactive means score below 0.9.
Log the outcome using a class from y (active), n (inactive)

Record excerpt, results attached:
COCc1nnc(-c2ccc[n+]([O-])c2)n1-c1c(Cl)c(Cl)cc2[nH]c(=O)c(=O)[nH]c12 n
O=S(=O)(O)c1ccc(N=Nc2c(O)ccc3cc(S(=O)(=O)O)ccc23)cc1 y
C=CCc1cc(S(=O)(=O)c2ccc(O)c(CC=C)c2)ccc1O y
Cc1nccn1-c1ccc(Sc2cccc(C3(C(N)=O)CCOCC3)c2)cc1 y
CCn1nc(C)c2c1C(=O)NCC(c1ccc(O)cc1)=N2 y

Exam item: Lab log entry: CCc1ccc(O)c(C(C)(C)C)c1 — outcome as called in the assay?
Marked response: n

###

Run Description: ATG_DR4_LXR_CIS: Attagene CIS-FACTORIAL HepG2 Assay for human Liver X Receptor (LXR), DR4 submotif (AID 2282929)
Condition Details: HepG2 Attagene DR4 cis-reporter, mRNA transcription; actives raise or lower the signal
The source made the active and inactive calls. How the source made its calls: active means hit-call score of the fitted dose curve at least 0.9, where 1 is the maximum; inactive means score below 0.9.
Pick from active, inactive when you respond.

Exam item: // return assay outcome for CCCc1ccccc1
Marked response: inactive

Exam item: # lookup: test call for COc1cc(C(C)C)c2c(c1)S(=O)(=O)N(COc1cc(=O)n3cccc(OCCN4CCCCC4)c3n1)C2=O
Marked response: active

Exam item: Name the outcome recorded for OCCC(F)(F)C(F)(F)C(F)(F)C(F)(F)F in the assay.
Marked response: inactive

Exam item: In this assay, the call recorded for CC(=O)c1ccccc1 was what?
Marked response: inactive

Exam item: Name the outcome recorded for Cc1nc(-c2ccccn2)ncc1C(=O)Nn1cc(C)c2cc(F)ccc21 in the assay.
Marked response: inactive

Exam item: Record request — test call for CC(C)C(=O)Nc1ccc([N+](=O)[O-])c(C(F)(F)F)c1
Marked response: inactive

Exam item: Identify the outcome logged in this assay for the molecule shown: C=CN1CCCC1=O
Marked response: inactive

Exam item: Outcome? OC[C@H]1O[C@@](CO)(O[C@H]2O[C@H](CO)[C@@H](O)[C@H](O)[C@H]2O)[C@@H](O)[C@@H]1O
Marked response: inactive

Exam item: Test call, this molecule: O=S(=O)(O)c1ccc(N=Nc2c(O)ccc3cc(S(=O)(=O)O)ccc23)cc1
Marked response: inactive

###

Read-out: Apolipoprotein A-V (APOA5) gene, APOA5 (gene 116519)
Run Description: LTEA_HepaRG_APOA5: Life Technologies and Expression Analysis (LTEA) Assay for Apolipoprotein A-V (APOA5) gene using HepaRG (AID 2283474)
Condition Details: mRNA level, 48 h; actives raise or lower the signal
Method: LTEA_HepaRG is a cell based, multiplexed-readout assay that uses HepaRG, a human liver cell line, with measurements taken at 48 hours after chemical dosing on a 96-well plate.LTEA_HepaRG_APOA5 is one of 102 assay component(s) measured in the LTEA HepaRG cell culture assay. It is a marker of Steatosis.Data from the assay component LTEA_HepaRG_APOA5 was analyzed into 1 endpoint. […]
Active and inactive are the calls of the source. How the source made its calls: active means hit-call score of the fitted dose curve at least 0.9, where 1 is the maximum; inactive means score below 0.9.
Field 'call' accepts active, inactive

Compound	Assigned Category
O=C(O)c1cccc(C(=O)O)c1	inactive
CC(C)CCCCCCOC(=O)C1CCCCC1C(=O)OCCCCCCC(C)C (stereo not given)	active
NC(=O)N1c2ccccc2C=Cc2ccccc21	inactive

Exam item: Which outcome did this test record for the compound CNC(C)=O ?
Marked response: inactive

Exam item: # lookup: test call for CC1(C)C(=O)N(Cl)C(=O)N1Cl
Marked response: inactive

Exam item: Called result for CCCOc1ccc(S(=O)(=O)N2CCN(CC)CC2)cc1-c1nc2c(CC)n(Cc3ccccn3)nc2c(=O)[nH]1
Marked response: inactive

Exam item: # outcome recorded in this test, key = O=C(O)c1cccc(C[C@@H]2COc3ccc(OCc4nc5cc(F)ccc5s4)cc3[C@@H]2O)c1
Marked response: active

Exam item: Write down the call the test reported for this compound. Item: CCCCCCCC/C=C\CCCCCCCC(=O)OC[C@@H](O)[C@H]1OC[C@H](O)[C@H]1O
Marked response: inactive

Exam item: Dear all, I need the recorded test outcome for OC(CCl)CCl , thank you.
Marked response: inactive

Exam item: Outcome logged for CCCCC(CC)C(=O)OCCOCCOCCOC(=O)C(CC)CCCC (stereo not given) in this assay:
Marked response: inactive

Exam item: In this assay, the call recorded for O=C(O)c1ccc2c(c1)nc(C(=O)NC1CCN(C3CC3)CC1)n2Cc1cc(-c2ccc(Cl)s2)on1 was what?
Marked response: inactive

Exam item: What did this assay record as the result for CCOC(N)=O ?
Marked response: inactive

Exam item: Record lookup: outcome of this test for OC(Cn1cncn1)(Cn1cncn1)c1ccc(F)cc1F ?
Marked response: inactive

Exam item: For this compound, state the assay outcome: OCC(CO)(CO)CO
Marked response: inactive

Exam item: Name the outcome recorded for Cn1c(=O)c2[nH]cnc2n(C)c1=O in the assay.
Marked response: inactive

###

Read-out: serum amyloid A (SAA), SAA1 (gene 6288)
Run Description: BSK_CASM3C_SAA: BioMAP Diversity Plus: CASM3C Assay for serum amyloid A (SAA) Biomarker Activity (AID 2283049);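 note: SAA protein level quantified by ELISA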
Condition Details: primary human coronary artery smooth muscle cells; actives raise or lower the signal
Active and inactive are the calls of the source. How the source made its calls: active means hit-call score of the fitted dose curve at least 0.9, where 1 is the maximum; inactive means score below 0.9.
Assay Readout: outcome

Compound	outcome
C[Si](C)(C)C(F)(F)C(F)(F)C(F)(F)F	inactive
CC(C)CC(C)O (stereo not given)	inactive
Cc1cccc(O)c1C	inactive
CC(=O)c1ccccc1	inactive
OCC(CO)(CO)CO	inactive
O=S(=O)(O)c1ccc(N=Nc2c(O)ccc3cc(S(=O)(=O)O)ccc23)cc1	inactive
CCOC(N)=O	inactive
FC(F)(F)C(F)(F)C(F)(F)C(F)(F)C(F)(F)C(F)(F)I	inactive
c1ccc2cc3ccccc3cc2c1	inactive
c1ccc2ncccc2c1	inactive

Exam item: Need outcome, item Cn1cc[nH]c1=S
Marked response: inactive

Exam item: Which outcome reading was recorded for the compound OC[C@H]1O[C@@H]2O[C@H]3[C@H](O)[C@@H](O)[C@@H](O[C@H]4[C@H](O)[C@@H](O)[C@@H](O[C@H]5[C@H](O)[C@@H](O)[C@@H](O[C@H]6[C@H](O)[C@@H](O)[C@@H](O[C@H]7[C@H](O)[C@@H](O)[C@@H](O[C@H]1[C@H](O)[C@H]2O)O[C@@H]7CO)O[C@@H]6CO)O[C@@H]5CO)O[C@@H]4CO)O[C@@H]3CO ?
Marked response: inactive

###

Run Description: Tanguay_ZF_120hpf_SOMI_legacy: (Legacy) Oregon State University Tanguay Lab 120 Hour Post-fertilization zebrafish Assay for Somite Malformation (AID 2283647)
Inconclusive results are not listed. Activity calls are given as the source filed them. How the source made its calls: active means hit-call score of the fitted dose curve at least 0.9, where 1 is the maximum; inconclusive means response in the unintended direction; inactive means score below 0.9.
In this exercise, the only acceptable responses are YES = active, NO = inactive

Exam item: How did this test come out for CC(C)CC(C)O (configuration not stated) ?
Marked response: NO

###

Read-out: Interleukin-1 alpha (IL1a), IL1A (gene 3552)
Run Description: BSK_LPS_IL1a: BioMAP Diversity Plus: LPS Assay for Interleukin-1 alpha (IL1a) Biomarker Activity (AID 2283080)
Condition Details: primary human HUVEC with PBMC; actives raise or lower the signal
Activity calls are given as the source filed them. The calls were made as follows: active = hit-call score of the fitted dose curve at least 0.9, where 1 is the maximum; inactive = score below 0.9.
Select the correct class. Options are True (active), False (inactive) and nothing else.

Reference set, count: 5
Molecule	Assigned Category
CCOC(N)=O	False
O=S(=O)(O)c1ccc(N=Nc2c(O)ccc3cc(S(=O)(=O)O)ccc23)cc1	False
O=S1(=O)CCCO1	False
CCCCOC(=O)c1ccccc1	False
CCc1cccc(CC)c1N	False

// switching to the query molecule
Exam item: Could you please tell me the result logged for Cc1cccc(O)c1C in this assay?
Marked response: False
